- System: ACHN
- Assay Method Text: cell viability IC50 over 72 hours, ACHN kidney cell line
- Assay type: cell-based
- Particulars: Homo sapiens
Provide the recorded pIC50 for the entries that follow.
Recall that pIC50 is obtained by taking minus log10 of the concentration measured in molar.

Recorded pIC50 (compound CC1=C(CN(O)C(N)=O)C2=C(C)C3(CC3)[C@@](C)(O)C(=O)C2=C1 [LP-184, (−)-hydroxyureamethyl acylfulvene] ): 6.65

Recorded pIC50 (compound CC1=C(CN(O)C(N)=O)C2=C(C)C3(CC3)[C@](C)(O)C(=O)C2=C1 [LP-284, (+)-hydroxyureamethyl acylfulvene] ): 5.95
